System: NCI-H226 lung
Assay: NCI tumour cell line growth inhibition, 48 h; in the data active = GI50 below about 0.43 µM; inactive = the rest
Pick one and only one: active, inactive

Input: For O=C1c2cccnc2C(=O)c2c1c(C(=O)OCCCN1CCCCC1)c1ccccn21 , which call appears in the assay record?
Output: active

* * *

Tested on: RXF 393 renal
Experiment: NCI tumour cell line growth inhibition, 48 h
assay metric: TGI

Examples with answers:
molecule	TGI
O=c1c2cc3c(cc2c2cccc4c2n1CCC4)OCO3	92.2 µM
C=C(C(=C)P(=S)(C(C)C)C(C)C)P(=S)(C(C)C)C(C)C	> 100 µM
CC(C)C1=CC(=O)[C@@](C)(C2[C@H](O)C[C@@]3(C)[C@@H]4CC=C5[C@@H](CC[C@@H](OC6OCC(O)C(O)C6OC6OC(C)C(O)C(O)C6O)C5(C)C)[C@]4(C)C(=O)C[C@]23C)O1 (stereo partly specified)	> 100 µM

Here are 3 molecules. What values of TGI were reported for them?
1. CSc1nc(N)c2c(-c3ccccc3)c3c(nc2n1)CCCC3
2. N#CC(C#N)=C/C=C(\Sc1ccc(F)cc1Cl)c1ccc(Cl)cc1
3. O=C1CC/C(=C/COc2cc(=O)oc3ccccc23)O1

Output:
1: 94.2 µM; 2: > 100 µM; 3: 21 µM

Here are 6 molecules. What values of TGI were reported for them?
1. C/C(=N\O)c1cccc[n+]1Cc1ccccc1
2. CN(C)c1ccc(/C=N/S(=O)(=O)c2ccc(-n3c(-c4ccccc4)nc4c(Br)cc(Br)cc4c3=O)cc2)cc1
3. Cc1nc2ccccc2nc1N=Nc1ccccc1
4. CN(CCNC(=O)c1c[nH]c2c1Cc1ccccc1-2)CCNC(=O)c1c[nH]c2c1Cc1ccccc1-2
5. CCN1C(=NCCO)NS(=O)(=O)c2ccccc21
6. NC(Cc1ccc2nc3c4ccccc4c(=O)cc-3oc2c1)C(=O)O (stereo unspecified)

Output:
1. > 100 µM
2. > 100 µM
3. > 100 µM
4. > 100 µM
5. > 100 µM
6. > 100 µM

Here are 8 molecules. What values of TGI were reported for them?
1. OC1(c2ccc(Cl)cc2)c2ccccc2-c2nc3ccccc3n21 (stereo unspecified)
2. COc1cc(Cl)cc(-c2nn(-c3cccc(NC(=O)Nc4ccc(Cl)c(Cl)c4)c3)cc2-c2ccncc2)c1
3. C#CCN(Cc1ccc2nc(-c3ccccc3)c(N)nc2c1)c1cc(OC)c(OC)c(OC)c1
4. CCOC(=O)Nc1cc2ccccc2c(N=Nc2ccccc2)c1O
5. NCCN1C(=O)c2ccccc2C1c1ccc(Cl)cc1 (stereo unspecified)
6. OC1COC2CC(Nc3ccccn3)OC12 (stereo unspecified)
7. CCOc1ccc2c(c1)c(CC(=O)O)cn2C
8. Cc1nc2sc(C(=O)c3ccc(Cl)cc3)c(N)c2c(-c2ccccc2Cl)c1C(=O)Nc1ccccc1

Output:
55 µM
7.25 µM
96.2 µM
69.4 µM
> 100 µM
> 100 µM
> 100 µM
31.3 µM

Input: Given the molecule C/C(=N\NC(=S)N1CCCCCC1)c1cccc2cccnc12 , what is its reported TGI?
Output: > 100 µM

* * *

Tested on: HT29 colon
Test: NCI tumour cell line growth inhibition, 48 h
assay metric: TGI

Examples with answers:
> print(dat)
                                   molecule  assay.metric  test.value
1  NCCN1C(=O)c2ccccc2C1c1ccc(Cl)cc1 (stereo not given)           TGI    > 100 µM
2  CCc1nc(N)nc(N)c1-c1ccc(Cl)c(N=[N+]=[N-])c1           TGI   > 85.4 µM
3  CC1(C)O[C@@H]2C[C@H]3[C@@H]4C[C@H](F)C5=CC(=O)C=C[C@]5(C)[C@@]4(F)[C@@H](O)C[C@]3(C)[C@]2(C(=O)CO)O1           TGI    > 100 µM

Here are 2 molecules. What values of TGI were reported for them?
1. OC1(c2ccc(Cl)cc2)c2ccccc2-c2nc3ccccc3n21 (stereo not given)
2. CC1(C)COC2=C(C1)C(=O)c1ccccc1C2=O

Output:
> 100 µM
5.41 µM

* * *

So I've got a bunch of compounds here, and I need their GI50 values.
System: NCI-H226 lung
Assay: NCI tumour cell line growth inhibition, 48 h

Examples with answers:
> print(dat)
                                   compound  test.value
1  COc1cnc2c(c1)C(=O)c1c-2n(CCCN2CCC(O)CC2)c(=O)c2cc(Cl)ccc12      662 nM
2  COC(=O)C(C(=O)OC)C(Br)C(Br)C(Br)c1ccccc1 (stereo not given)    15100 nM
3  O=C1N(Cc2ccccc2Cl)c2ccccc2C12NN=C(c1cccc(Cl)c1)S2 (stereo not given)     1490 nM
4              CCCCCCCCCCCCCC[n+]1ccc(C)cc1      915 nM

Here are 4 compounds. What values of GI50 were reported for them?
1. CCCCCCNCc1cc(C(C)(C)C)cc(CNCCCCCC)c1O
2. COC(=O)[C@H](Cc1cn(C)cn1)NC(=O)[C@H](C)NC(=O)Nc1cc(C(F)(F)F)cc(C(F)(F)F)c1
3. COc1ccc(CCN2CCC(CN(C)Cc3cnn(-c4ccccc4)c3)CC2)cc1
4. COCCOCCOCc1n(Cc2ccc3ccccc3n2)c2ccccc2[n+]1Cc1ccc2ccccc2n1

Output:
1: 1690 nM; 2: > 10000 nM; 3: 32500 nM; 4: 2440 nM

Here are 2 compounds. What values of GI50 were reported for them?
1. Cc1[nH]c2cc(F)ccc2c1-c1nc2c3cccnc3c3ncccc3c2[nH]1
2. O=Cc1ccc(-c2ccc(-c3nc4ccccc4s3)cc2)s1

Output:
168 nM
66100 nM

* * *

Tested on: A498 renal
Assay: NCI tumour cell line growth inhibition, 48 h
assay metric: TGI (µM)
Answers are plain numbers, in µM.

Here are 7 compounds. What values of TGI were reported for them?
1. Cc1ccc(C2NC(=O)c3ccccc3N2)c(C)c1 (stereo not drawn)
2. COc1ccc(C(=O)C#Cc2c[nH]c(=O)[nH]c2=O)cc1
3. Clc1ccc(C[P+](c2ccccc2)(c2ccccc2)c2ccccc2)cc1Cl
4. N#CC(C#N)=C/C=C(\Sc1ccc(F)cc1Cl)c1ccc(Cl)cc1
5. CC1=C(C)CC2(C=C(C(C)(C)C)C(=O)C(C(C)(C)C)=C2)SC1
6. CC1(C)COC2=C(C1)C(=O)c1ccccc1C2=O
7. O=C1CC/C(=C/COc2cc(=O)oc3ccccc23)O1

Output:
1: 34.9; 2: 49.9; 3: 27; 4: 24; 5: 35.4; 6: 3.56; 7: 35.4

Here are 2 compounds. What values of TGI were reported for them?
1. Cc1nc2sc(C(=O)c3ccc(Cl)cc3)c(N)c2c(-c2ccccc2Cl)c1C(=O)Nc1ccccc1
2. COc1cc(C)c2sc3ccccc3c(=O)c2c1NCCN(C)C

Output:
1. 48
2. 22.1

* * *

Test system: HT29 colon
Experiment: NCI tumour cell line growth inhibition, 48 h
assay metric: TGI

Examples with answers:
compound	TGI
COc1ccc(-c2c(-c3ccccc3)c(C)nc3nc(SC)nc(SC)c23)cc1OC	> 100 µM
CC(C)(C)N/N=C(\C(=O)NC1=C(Cl)C(=O)c2ccccc2C1=O)C1C=CCS1(=O)=O (centres undefined)	29.3 µM
Cc1cccc(N2C(=O)C3c4[nH]c5ccc(C)cc5c4C4CCC(C(C)(C)C)CC4C3C2=O)c1 (centres undefined)	> 100 µM

Here are 7 compounds. What values of TGI were reported for them?
1. O=C(O)[C@H](CCC[C@H]1C(=O)O[C@H](c2ccccc2)[C@H](c2ccccc2)N1C(=O)OCc1ccccc1)N[C@@H](c1ccccc1)[C@H](O)c1ccccc1
2. O=C(/C(=C\I)c1ccccc1)c1ccccc1
3. O=C1CSC(c2ccc(Cl)cc2Cl)N1c1ccc(Oc2ccc(Cl)cc2)c(Cl)c1 (centres undefined)
4. COC1CC(N)C(O)C(C)O1 (centres undefined)
5. COc1cc(-c2c3c(cc4c2OCO4)[C@@H](Nc2ccc(-c4ccc(-c5ccc(N[C@@H]6c7cc8c(cc7C(c7cc(OC)c(O)c(OC)c7)[C@H]7C(=O)OC[C@H]67)OCO8)cc5)cc4)cc2)[C@H]2COC(=O)[C@@H]2C3)cc(OC)c1O (some centres undefined)
6. Cc1cc(S(=O)(=O)Nc2n[nH]c(N)n2)c(Cl)cc1Cl
7. CC(=O)O[C@H]1CC[C@@]2(C)C(=C/C(=N/OCCN3CCCC3)[C@H]3[C@@H]4CC[C@H](OC(C)=O)[C@@]4(C)CC[C@@H]32)C1

Output:
> 100 µM
4.95 µM
30.6 µM
> 100 µM
5.62 µM
> 10 µM
> 100 µM

* * *

System: BT-549 breast
Experiment: NCI tumour cell line growth inhibition, 48 h
assay metric: TGI

molecule	TGI
O=C(O)[C@H](CCC[C@H]1C(=O)O[C@H](c2ccccc2)[C@H](c2ccccc2)N1C(=O)OCc1ccccc1)N[C@@H](c1ccccc1)[C@H](O)c1ccccc1	78.9 µM

Here are 3 molecules. What values of TGI were reported for them?
1. COC1(CC[C@@H](C)COC2OC(CO)C(O)C(O)C2O)O[C@H]2C[C@H]3[C@@H]4CC=C5C[C@@H](OC6OC(CO)C(O)C(OC7OC(CO)C(O)C(O)C7O)C6OC6OC(C)C(O)C(O)C6O)CC[C@]5(C)[C@H]4CC[C@]3(C)[C@H]2[C@@H]1C (stereo partly drawn)
2. CC(C)=CC(=O)c1[nH]c2ccccc2c1CC(=O)NCCc1cncn1C
3. CC1SC2(CCCCC2)N(NC(=O)c2[nH]c3ccc(Br)cc3c2-c2ccccc2)C1=O (stereo not drawn)

Output:
["31.8 µM", "> 100 µM", "> 100 µM"]

Here are 5 molecules. What values of TGI were reported for them?
1. CCCCNc1ccc(Nc2ccccc2)cc1
2. Br[C@@H]1[C@H]2c3nc4ccccc4nc3[C@@H]1C[C@H]2Br
3. COc1cc2c(/C=C3/C(=O)Nc4ccc(Cl)cc43)c(Cl)[nH]c2cc1C
4. O=C1c2cccnc2C(=O)c2c1c(C(=O)OCCCN1CCCCC1)c1ccccn21
5. CCc1c(-c2ccc(OC)cc2)oc(OC)c(C)c1=O

Output:
["21.6 µM", "> 100 µM", "1.08 µM", "2.78 µM", "> 100 µM"]

Here are 6 molecules. What values of TGI were reported for them?
1. COC(=O)C1OC(O[C@H]2CC[C@]3(C)[C@H]4CC=C5[C@@H]6CC(C)(C)CC[C@]6(C(=O)OC6OCC(O)C(O)C6OC6OC(C)C(OC7OCC(O)C(O)C7O)C(OC7OCC(O)(CO)C7O)C6O)[C@H](O)C[C@@]5(C)[C@]4(C)CC[C@H]3C2(C)C)C(O)C(O)C1O (stereo partly drawn)
2. Cc1cccc(N2C(=O)C3c4[nH]c5ccc(C)cc5c4C4CCC(C(C)(C)C)CC4C3C2=O)c1 (stereo not drawn)
3. COc1ccc(-c2c(-c3ccccc3)c(C)nc3nc(SC)nc(SC)c23)cc1OC
4. COc1ccc2c(c1)-c1nn(CCCN(C)C)c3ccc([N+](=O)[O-])c(c13)N2
5. Brc1cccc(C2ON=C(c3ccccc3)N2C23CC4CC(CC(C4)C2)C3)c1 (stereo not drawn)
6. NC(=O)c1sc(-n2cnc3cc(C(F)(F)F)ccc32)cc1OCc1ccccc1Br

Output:
["6.55 µM", "> 100 µM", "> 100 µM", "7.19 µM", "> 10 µM", "> 25 µM"]

These entries and their values trace back to PubChem BioAssay (NCI).
